methodSummary: Pharmacokinetics of LSL33 in CD1 mice (plasma and brain)
studyConditions: male, CD1, mouse, plasma, oral, 2 mg/kg
readoutKind: AUC(0-inf) (ng·h/mL)

INSERT INTO measurements (moleculesmiles, readoutkind, recordedvalue) VALUES
  ('Cl.c1ccc2sc(-c3ncc[nH]3)cc2c1', 'AUC(0-inf)', 3050);

###

methodSummary: Pharmacokinetics of LSL33 in CD1 mice (plasma and brain)
studyConditions: male, CD1, mouse, plasma, oral, 2 mg/kg, t1/2β (terminal elimination half-life), CD1 mice, single 2 mg/kg dose
readoutKind: half-life (h)

INSERT INTO assay_data (compound, recordedvalue) VALUES
  ('Cl.c1ccc2sc(-c3ncc[nH]3)cc2c1 [LSL33]', 5.21);

###

studyTarget: imidazoline I2 receptors (I2-IR)
methodSummary: Competition binding against [3H]2-BFI, membranes from post-mortem human frontal cortex
studyConditions: two-site model, high-affinity site
Please note: true applies when [3H]-2-BFI I2 pKi (Two Sites), high affinity (pKiH) is 9 or greater, and false applies otherwise.

INSERT INTO assay_data (compound, assignedclass) VALUES
  ('Cl.c1ccc2sc(-c3ncc[nH]3)cc2c1', 'true'),
  ('c1ccc2c(c1)OCC(C1=NCCN1)O2 (stereo not drawn)', 'false'),
  ('c1ccc2oc(-c3ncc[nH]3)cc2c1 [LSL60101, reference compound]', 'false'),
  ('Cl.c1ccc2[nH]c(-n3ccnc3)cc2c1 [LSL29, 2-Imidazol-1-yl-1H-indole hydrochloride]', 'false');

###

studyTarget: α2-adrenergic receptor (α2-AR)
methodSummary: Competition binding against [3H]RX821002, membranes from post-mortem human frontal cortex
readoutKind: [3H]-RX821002 α2 pKi

INSERT INTO measurements (molecule, studytarget, recordedvalue) VALUES
  ('Cl.c1ccc2nc(-n3ccnc3)ccc2c1', 'α2-adrenergic receptor (α2-AR)', '5.24 ± 0.26'),
  ('Cl.c1ccc2[nH]c(-n3ccnc3)cc2c1 [LSL29, 2-Imidazol-1-yl-1H-indole hydrochloride]', 'α2-adrenergic receptor (α2-AR)', '4.99 ± 0.18'),
  ('c1ccc2oc(C3=NCCN3)cc2c1', 'α2-adrenergic receptor (α2-AR)', '4.58 ± 0.22'),
  ('c1ccc2oc(-c3ncc[nH]3)cc2c1 [LSL60101, reference compound]', 'α2-adrenergic receptor (α2-AR)', '3.18 ± 0.17'),
  ('c1ccc2c(c1)OCC(c1ncc[nH]1)O2 (centres unmarked)', 'α2-adrenergic receptor (α2-AR)', '3.97 ± 0.25'),
  ('Cl.c1ccc2nc(-c3ncc[nH]3)ccc2c1', 'α2-adrenergic receptor (α2-AR)', '5.32 ± 0.24'),
  ('c1ccc2c(c1)OCC(C1=NCCN1)O2 (centres unmarked)', 'α2-adrenergic receptor (α2-AR)', '7.92 ± 0.07'),
  ('Cl.c1ccc2sc(-c3ncc[nH]3)cc2c1', 'α2-adrenergic receptor (α2-AR)', '4.70 ± 0.12');

###

methodSummary: Pharmacokinetics of LSL33 in CD1 mice (plasma and brain)
studyConditions: male, CD1, mouse, brain, po, 2 mg/kg
readoutKind: concentration at 30 min (ng/g)

INSERT INTO assay_data (moleculesmiles, readoutkind, recordedvalue) VALUES
  ('Cl.c1ccc2sc(-c3ncc[nH]3)cc2c1', 'concentration at 30 min', 6.7);
